B1: Homeobox protein cut-like 1, residues 548 to 629; numbered along this chain, P39880 (parent)
chain: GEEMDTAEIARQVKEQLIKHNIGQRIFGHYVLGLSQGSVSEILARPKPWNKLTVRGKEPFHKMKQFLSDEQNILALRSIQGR

Variants of: B1
method description: abundance fitness (aPCA) (normalised: wild type 0, dead -1); higher = more abundant; growth selection in yeast, the domain comes from the species named
condition notes: Homo sapiens
Each entry gets criterion not met if its abundance fitness stays under -0.7, and criterion met if its abundance fitness is -0.7 or above.

| mutations | classification |
| --- | --- |
| V31L | criterion met |
| I22K | criterion not met |
| L52K | criterion not met |
| H20P | criterion met |
| V54Y | criterion met |
| R55T | criterion met |
| R77H | criterion met |
| R55E | criterion met |
